- METHOD_SUMMARY: Cellular permeability (Pc) (Caco-2 cell monolayer)
- Assay type: ADME
- TEST_CONDITIONS: human, read-out: Pc
TEST_READOUT: Papp

INSERT INTO measurements (molecule, test_readout, result_value) VALUES
  ('OC[C@H]1O[C@@H](O[C@@H]2[C@@H](CO)O[C@](O)(CO)[C@H]2O)[C@H](O)[C@@H](O)[C@H]1O', 'Papp', '0.27 ×10⁻⁶ cm/s'),
  ('CCN1CCCC1CNC(=O)c1cc(S(N)(=O)=O)ccc1OC (stereo not given) [SULPIRIDE]', 'Papp', '0.39 ×10⁻⁶ cm/s'),
  ('O=C(O)P(=O)(O)O', 'Papp', '0.05 ×10⁻⁶ cm/s'),
  ('Cc1cc(=O)n(-c2ccccc2)n1C [ANTIPYRINE]', 'Papp', '215 ×10⁻⁶ cm/s'),
  ('OC[C@H]1O[C@H](OC[C@H]2O[C@H](O[C@]3(CO)O[C@H](CO)[C@@H](O)[C@@H]3O)[C@H](O)[C@@H](O)[C@@H]2O)[C@H](O)[C@@H](O)[C@H]1O', 'Papp', '0.047 ×10⁻⁶ cm/s');

Values from ChEMBL document CHEMBL1134498
